Cited source for all entries: the DeepSol protein solubility set

Test: soluble on expression in E. coli; label from the status in PepcDB or PDB records

{"biosequence": "MGSDKIHHHHHHMINETRTTLDQSEVDHFSRIAAEWWNPHGKFRPLHQFNPTRLAYIREKICLELHRDPVSLKPFENLKILDIGCGGGLLCEPMARLGAMVVGADASQTNIEVAKIHAAQNGLSIDYRTTTAEALATEGEQFDIILNMEVVEHVADVNLFIEATAKMLKPQGLMFISTLNRTWKAWGLAIIGAEYILRWLPKGTHNYKKFLKPRELKNLLLQNALTVVDEIGVTYNPLNDSWNRSKDMNVNYLLLAKKS", "soluble on expression in E. coli": "not soluble"}
{"biosequence": "DFVHIMTPYLILDGELLHALKFAAERGVDVIIIMPGIPDKKSAYYLAKTYYPTLLASGVKIYEYTPGFIHAKVFVSDNSRAVVGTINLDYRSLYHHFECATYLYGTSSVLDIEEDFQATKDQCHRVSTTDVKNLPFYQKTLGLLARLVAP", "soluble on expression in E. coli": "not soluble"}

---

Experiment: soluble on expression in E. coli; label from the status in PepcDB or PDB records
metric.name: soluble on expression in E. coli

{"biosequence": "MSLKTRYVLSCLLLGSALSVSAQKMAVKSNLLSAANGALNAGVEYAFGPKSTFDLSGSIRPWKRTEGYVNKYWLIQPEYRYWTCQKFNGSFWGAYLNGAQFNVGGKKMPFGLFPWLKEHRYAGWLTGGGISYGYHIMLNRHWNIEVSVGVGYEYIDYKKYKCPDVCAELLEKGHYHYFGPSKASLSIVYIFNEGHHHHHH", "metric.name": "soluble on expression in E. coli", "result": "not soluble"}
{"biosequence": "DSQDWHDWIDQALTERRLLLYFQPVVDCLDTQRVLHHKVLARLLDPQATAIAAGRFLPWIERFGWAARMDLAMLEQSLEHLRRHPRPLALSLSAASVRNAQTFAPLLALLKAHPQEARQLTLELDERHLPAAAELERLSQVLRELGCGLGLQHFGGRFSLIGNLTHLGLAYLKLDGCYLHAVDREGDKRLFIEAVYRTTHSIDLPLIAEQVETLGELEVLREMGLRGAMGRLFGSPAPWSGDA", "metric.name": "soluble on expression in E. coli", "result": "soluble"}
{"biosequence": "MGGSHHHHHHGMASALGADGFVPLGTLLQLPQFRGFSAEDVQRVVDTNRKQRFALQLGDPSTGLLIRANQGHSLQVPKLELMPLETPQALPPMLVHGTFWKHWPSILLKGLSCQGRTHIHLAPGLPGDPGIISGMRSHCEIAVFIDGPLALADGIPFFRSANGVILTPGNTDGFLLPKYFKEALQLRPTRKPLSLAGDEETECQSSPKHSSRERRRIQQ", "metric.name": "soluble on expression in E. coli", "result": "not soluble"}
{"biosequence": "MSQYIYELEMKVRDYECDLQGIVNNANYQHYLEHTRHEFLTSVGVSFAALHEQGVDPVVARINMAFKTPLKSGDEFVSKLYMKKEGIKYVFYQDIFRKSDQKVVVKSTVETVCVVNGRLSNSELFDNVFAPYLK", "metric.name": "soluble on expression in E. coli", "result": "not soluble"}
{"biosequence": "MSKEKYSFEDLIKVMEELRKKCPWDREQTHESLKKYLIEEAYEVLDAIDSKDDEKLKEELGDLLLQVVFHSQIAKERGAFDINDVIDTLVKKLIERHPHVFGCANPEDVLKNWEKKKMEKRKSIFEGIPKHLPALMRSQKLQDRTSQVGFDFQDISQVFEKIQEEINELKESLEKGDRENIKHEIGDILTAVVELARFVNVDAEEALQEANERFIRRFSYIEKKAKEEGRKLEDMSLEEMDKLWMEAKKLEEQGKLS", "metric.name": "soluble on expression in E. coli", "result": "soluble"}
{"biosequence": "MLFKRYGDPISLLRTYRLCDLMEFIFYVQEVEQEEKIYNQWLHTQMTQSLKEFKDQQKYRPLRKNKAKSTTKEEQQKALDFASQFVKPRKEGEVS", "metric.name": "soluble on expression in E. coli", "result": "not soluble"}
{"biosequence": "MSLRIALAGAGAFGEKHLDGLKNIDGVEITSIISRTGEQAAAVAAKYGAKHSSTELEDALARDDVDAVILCTPTQMHASQAIACMKAGKHVQVEIPLADSWADSQEVLRVQQETGKVCMVGHTRRFNPSHQFVHNRIKAGEFNVQQMDVQTYFFRRKNINAKGEPRSWTDHLLWHHAAHTVDLFAYQAGRIVKANAVEGPIHPELGIAMDMSIQLKSETGAICTLSLSFNNDGPLGTFFRYIGDTATYIARYDDLVNGKEEPIDVSKVDVSMNGIELQDREFVAAIREGREPNSSVQKVFDCYRVLGELEQQLAKGEGHHHHHH", "metric.name": "soluble on expression in E. coli", "result": "soluble"}
